system under test: FGFR3 (UniProt P22607)
Sequence (P22607 whole entry, looked up): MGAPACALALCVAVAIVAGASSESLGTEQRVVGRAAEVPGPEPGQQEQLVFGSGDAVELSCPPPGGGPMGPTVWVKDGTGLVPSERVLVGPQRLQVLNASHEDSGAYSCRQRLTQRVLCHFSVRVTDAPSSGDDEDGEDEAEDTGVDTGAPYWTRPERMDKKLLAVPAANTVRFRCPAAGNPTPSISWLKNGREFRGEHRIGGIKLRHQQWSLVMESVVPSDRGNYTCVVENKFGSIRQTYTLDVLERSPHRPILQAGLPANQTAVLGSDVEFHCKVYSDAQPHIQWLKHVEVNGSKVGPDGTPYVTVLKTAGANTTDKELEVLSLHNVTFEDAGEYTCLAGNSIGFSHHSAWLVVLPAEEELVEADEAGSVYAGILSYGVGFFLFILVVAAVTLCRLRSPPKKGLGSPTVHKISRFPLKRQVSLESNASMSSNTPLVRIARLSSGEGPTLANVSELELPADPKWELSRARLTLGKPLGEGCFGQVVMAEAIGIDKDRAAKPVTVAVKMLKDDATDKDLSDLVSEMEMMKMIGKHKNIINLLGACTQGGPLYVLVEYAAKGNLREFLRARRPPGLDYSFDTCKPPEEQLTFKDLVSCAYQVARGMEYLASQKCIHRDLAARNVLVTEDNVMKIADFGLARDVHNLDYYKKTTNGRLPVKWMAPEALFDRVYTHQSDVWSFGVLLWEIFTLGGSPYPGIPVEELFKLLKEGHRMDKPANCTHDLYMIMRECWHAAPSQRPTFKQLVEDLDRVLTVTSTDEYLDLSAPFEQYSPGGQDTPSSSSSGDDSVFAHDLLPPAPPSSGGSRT
procedure text: phosphorylation enrichment, bacterial display (enrichment ratio); higher = better substrate or ligand; peptides without Tyr show the background;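 further: 11-residue human phosphosite peptides and single-mutation variants displayed on the E. coli surface, counted by deep sequencing, each peptide's frequency after selection divided by its frequency in the unselected input library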;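 further: frequency after pTyr selection over input frequency; kinase dosed for 20-30% of maximal phosphorylation in three min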
Label scheme for phosphorylation enrichment: lower than 0.8 is not fulfilled, 0.8 and above is fulfilled.

[[record]]
chain = "DKMEAYNIDET [TEKT4_Y210]"
group = "fulfilled"

[[record]]
chain = "CLMILHRLKER [PTPRR_Y249_Y249H]"
group = "not fulfilled"

[[record]]
chain = "GSPPPYRRRKR [MBD1_Y403]"
group = "not fulfilled"

[[record]]
chain = "AGITAYQSCLQ [ADGRA2_Y377]"
group = "fulfilled"

[[record]]
chain = "KMGNEYVTKGQ [MYH7_Y410_V406M]"
group = "not fulfilled"

[[record]]
chain = "KNKELYSDPFD [PDE10A_Y300_L303P]"
group = "fulfilled"

[[record]]
chain = "EEETDYTPVWC [UROD_Y30_G25E]"
group = "fulfilled"

[[record]]
chain = "CTTIHYNHMCN [TP53_Y234_Y236H]"
group = "not fulfilled"

[[record]]
chain = "IMICAYLLHRG [PTEN_Y138_V133I]"
group = "not fulfilled"

[[record]]
chain = "YENGEYIVRQG [PRKG1_Y247_I249V]"
group = "not fulfilled"

[[record]]
chain = "DFLSSYSAVNE [OAT_Y85_Q90E]"
group = "not fulfilled"

[[record]]
chain = "NNIDYYKKTTN [FGFR2_Y657]"
group = "not fulfilled"

[[record]]
chain = "RISRKYKKVRF [F8_Y442_G439S]"
group = "not fulfilled"

[[record]]
chain = "AQADIYKADFQ [IKBKG_Y308]"
group = "not fulfilled"

[[record]]
chain = "HILRVYSGVLP [PCNX4_Y999_G1000S]"
group = "fulfilled"

[[record]]
chain = "VGTTAYVAPEA [IRAK4_Y354_M355V]"
group = "not fulfilled"

[[record]]
chain = "DESEDCRDTVV [CNNM3_Y456_Y456C]"
group = "not fulfilled"

